The values you see were collected from patent US10689354B2.

EC50 for assorted molecules
study target: androgen receptor (AR-LBD) (Rattus norvegicus)
Construct: 5 μL of 2×AR-LBD/Fluoromone AL Red Complex contained in the kit; purchased Invitrogen
Sequence (P15207 651-882 limits assumed): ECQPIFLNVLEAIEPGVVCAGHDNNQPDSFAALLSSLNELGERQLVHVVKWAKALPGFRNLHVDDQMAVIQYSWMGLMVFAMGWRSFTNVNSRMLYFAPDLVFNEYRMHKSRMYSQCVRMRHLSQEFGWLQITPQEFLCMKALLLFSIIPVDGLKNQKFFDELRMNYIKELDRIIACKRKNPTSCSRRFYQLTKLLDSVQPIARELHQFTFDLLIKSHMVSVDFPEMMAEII
assay name: Evaluation of androgen receptor affinity (PolarScreen Androgen Receptor Competitor Assay Kit, Red; fluorescence polarization)
reported conditions: 22° C. for 5 hours, relative to binding rate of 1 μM DHT, read-out: AR affinity (pEC50) (converted)

Sample records with EC50:
>>> result("Cc1sc(N(Cc2csc3cccc(C)c23)c2ccc(C#N)cc2)nc1C(=O)NS(C)(=O)=O")
"63.1 nM"
>>> result("Cc1sc(N(Cc2ccccc2)c2ccc(C#N)cc2)nc1C(=O)NS(=O)(=O)Cc1ccccn1")
"316 nM"
>>> result("Cc1oc(N(Cc2ccc(Cl)cc2)c2ccc(C#N)cc2)nc1C(=O)NS(=O)(=O)C1CC1")
"200 nM"
>>> result("CS(=O)(=O)NC(=O)c1nc(N(Cc2ccc(OC(F)F)cc2)c2ccc(C#N)cc2)oc1C1CC1")
"50.1 nM"
>>> result("Cc1sc(N(Cc2ccccc2C#N)c2ccc(C#N)cc2)nc1C(=O)NS(C)(=O)=O")
"> 2000 nM"
>>> result("Cc1sc(N(Cc2ccccc2)Cc2ccccc2C#N)nc1C(=O)NS(C)(=O)=O")
"> 2000 nM"

Data request: Check the records and state EC50 for `CS(=O)(=O)NC(=O)c1nc(N(Cc2ccc(Cl)c(Cl)c2)c2ccc(C#N)cc2)oc1C1CC1`
Data returned: 25.1 nM

Data request: Check the records and state EC50 for `Cc1oc(N(Cc2cccc(OC(F)(F)F)c2)c2ccc(C#N)cc2)nc1C(=O)NS(C)(=O)=O`
Data returned: 25.1 nM

Data request: Check the records and state EC50 for `Cc1sc(N(Cc2csc(COc3ccccc3)n2)c2ccc(C#N)cc2)nc1C(=O)NS(C)(=O)=O`
Data returned: 25.1 nM

Data request: Check the records and state EC50 for `COCCCS(=O)(=O)NC(=O)c1nc(N(Cc2ccc(OC(F)(F)F)cc2)c2ccc(C#N)cc2)sc1C`
Data returned: 31.6 nM

Data request: Check the records and state EC50 for `Cc1sc(N(Cc2ccc(CO)cc2)c2ccc(C#N)cc2)nc1C(=O)NS(C)(=O)=O`
Data returned: 631 nM

Data request: Check the records and state EC50 for `Cc1sc(N(Cc2ccc(F)c(Cl)c2)c2ccc(C#N)cc2)nc1C(=O)NS(C)(=O)=O`
Data returned: 25.1 nM

Data request: Check the records and state EC50 for `Cc1oc(N(Cc2ccc3ncsc3c2)c2ccc(C#N)cc2)nc1C(=O)NS(C)(=O)=O`
Data returned: 251 nM

Data request: Check the records and state EC50 for `CS(=O)(=O)NC(=O)c1nc(N(Cc2cccc(Cl)c2)c2ccc(C#N)cc2)sc1Br`
Data returned: 31.6 nM

Data request: Check the records and state EC50 for `Cc1oc(N(CCc2ccc(Cl)cc2)Cc2ccc(OC(F)(F)F)cc2)nc1C(=O)NS(C)(=O)=O`
Data returned: 39.8 nM

Data request: Check the records and state EC50 for `CC(=O)c1cccc(CN(c2ccc(C#N)cc2)c2nc(C(=O)NS(C)(=O)=O)c(C)s2)c1`
Data returned: 251 nM

Data request: Check the records and state EC50 for `Cc1sc(N(Cc2ccc(Cl)cc2)c2ccc(C#N)cc2)nc1C(=O)NS(C)(=O)=O`
Data returned: 63.1 nM

Data request: Check the records and state EC50 for `CCS(=O)(=O)NC(=O)c1nc(N(CCc2ccc(C#N)cc2)Cc2ccc(Cl)cc2)sc1C`
Data returned: 31.6 nM

Data request: Check the records and state EC50 for `Cc1sc(N(CCC2CC2)Cc2ccccc2)nc1C(=O)NS(C)(=O)=O`
Data returned: > 2000 nM

Data request: Check the records and state EC50 for `COCCCS(=O)(=O)NC(=O)c1nc(N(CCc2ccc(OC(F)(F)F)cc2)Cc2ccc(Cl)cn2)oc1C`
Data returned: 158 nM

Data request: Check the records and state EC50 for `Cc1sc(N(Cc2ccc(C(F)F)cc2F)c2ccc(C#N)cc2)nc1C(=O)NS(C)(=O)=O`
Data returned: 39.8 nM
